measurement-protocol: 8581 concentration in serum after i.p. injection
Type: in vivo, mice
assay-conditions: B16;129F1, mouse, ip, 0.5 h after i.p. injection, 0.1 mg/kg, control mice
assay-readout: concentration at 0.5 h (ng/mL)
# unit: ng/mL | format: bare number

Memo: `FC(F)c1ncn2c1Cn1ncnc1-c1cc(Br)ccc1-2` , reported concentration at 0.5 h: 9.45

###

target: human GABA A α1β2/3γ2 (Homo sapiens, UniProt P14867+P18507)
measurement-protocol: [3H]flumazenil competition binding, HEK293 cells expressing human α1β2/3γ2
Parameters: expressed in transfected cells; host or cells: HEK293
assay-conditions: [3H]flumazenil competition, human α1β2/3γ2; read-out: hKi α1
assay-readout: pKi
In textbook form, pKi equals minus log to base ten of the concentration in mol/L.

Consider the reported pKi for these compounds:
[[record]]
given_smiles = "Cc1onc(-c2ccccc2)c1COc1ccc(C(=O)N2CC3(COC3)C2)cn1"
assay_readout = "pKi"
reported = 6.20

[[record]]
given_smiles = "FC(F)c1ncn2c1Cn1ncnc1-c1cc(Br)ccc1-2"
assay_readout = "pKi"
reported = 6.76

[[record]]
given_smiles = "Cc1onc(-c2ccccn2)c1COc1ccc(C(=O)N2CCOCC2)cn1"
assay_readout = "pKi"
reported = 6.33

[[record]]
given_smiles = "Cc1onc(-c2ccc(Cl)cn2)c1COc1ccc(C(=O)N2CCSCC2)cn1"
assay_readout = "pKi"
reported = 7.46

[[record]]
given_smiles = "Cc1onc(-c2ccc(F)cn2)c1COc1ccc(C(=O)N2CCS(=O)(=O)CC2)cn1"
assay_readout = "pKi"
reported = 6.84


Turning to the following compound.
Memo: `N#Cc1ccc2c(c1)-c1ncnn1Cc1c(C(F)F)ncn1-2` , reported pKi: 6.59

###

target: human GABA A α1β2/3γ2 (Homo sapiens, UniProt P14867+P18507)
measurement-protocol: [3H]flumazenil competition binding, HEK293 cells expressing human α1β2/3γ2
Design: expressed in transfected cells; host or cells: HEK293
assay-conditions: binding selectivity ratio
assay-readout: hKi α1/hKi α5
Number, no unit, nothing else.

Consider the reported hKi α1/hKi α5 for these molecules:
[[record]]
molecule = "FC(F)c1ncn2c1Cn1ncnc1-c1cc(Br)ccc1-2 [Compound 8581]"
assay_readout = "hKi α1/hKi α5"
reported = 38

[[record]]
molecule = "Cc1nc2n(n1)Cc1c(Cl)ncn1-c1ccc(Br)cc1-2 [Compound 8589]"
assay_readout = "hKi α1/hKi α5"
reported = 37

[[record]]
molecule = "Cc1onc(-c2ccc(Cl)cc2)c1COc1ccc(C(=O)N2CCOCC2)cn1 [Compound S1]"
assay_readout = "hKi α1/hKi α5"
reported = 102

[[record]]
molecule = "FCc1ncn2c1Cn1ncnc1-c1cc(F)ccc1-2 [Compound 8580]"
assay_readout = "hKi α1/hKi α5"
reported = 5


Memo: FC(F)c1ccc2c(c1)-c1ncnn1Cc1c(Cl)ncn1-2 [Compound 8588] , reported hKi α1/hKi α5: 19

###

target: human GABA A α2β3γ2 (Homo sapiens, UniProt P18507+P47869)
measurement-protocol: [3H]flumazenil competition binding, HEK293 cells expressing human α2β3γ2
Parameters: expressed in transfected cells; host or cells: HEK293
assay-conditions: binding selectivity ratio
assay-readout: hKi α2/hKi α5

Consider the reported hKi α2/hKi α5 for these molecules:
[[record]]
given_smiles = "Cc1onc(-c2ccc(F)cn2)c1COc1ccc(C(=O)N2CCS(=O)(=O)CC2)cn1"
assay_readout = "hKi α2/hKi α5"
reported = 44

[[record]]
given_smiles = "Cc1onc(-c2ccc(Cl)cc2)c1COc1ccc(C(=O)N2CCOCC2)cn1"
assay_readout = "hKi α2/hKi α5"
reported = 39

[[record]]
given_smiles = "Cc1nc2n(n1)Cc1c(Cl)ncn1-c1ccc(C#N)cc1-2"
assay_readout = "hKi α2/hKi α5"
reported = 13


Memo: `FC(F)c1ncn2c1Cn1ncnc1-c1cc(Br)ccc1-2` , reported hKi α2/hKi α5: 40

Memo: `FCc1ncn2c1Cn1ncnc1-c1cc(F)ccc1-2` , reported hKi α2/hKi α5: 3

Memo: `Fc1ccc2c(c1)-c1ncnn1Cc1c(Br)ncn1-2` , reported hKi α2/hKi α5: 7

Memo: `Cc1ncn2c1Cn1nc(CN3CCCC3=O)nc1-c1cc(Br)ccc1-2` , reported hKi α2/hKi α5: 94
